target: T1, KIX domain of CREB-binding protein (residues 586–672 of mouse CBP) (mouse, UniProt P45481 586-672); test: ITC; 600 μM MLL solution titrated into the cell containing 45 µM KIX; 30 °C; 20 mM Tris–acetate pH 7.0, 50 mM NaCl; one-site binding model; conditions: both partners purified
T1 construct: KIX domain, residues 586-672 of mouse CBP; 6xHis-tag and thrombin cleavage site at the N-terminus; source: E. coli BL21(DE3)pLysS, purified (Ni-NTA, gel filtration on Superdex 200 pg)
T1 sequence (P45481 586-672): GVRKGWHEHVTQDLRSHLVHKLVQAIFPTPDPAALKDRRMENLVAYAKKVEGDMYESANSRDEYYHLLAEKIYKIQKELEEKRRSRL
Overview of recorded stoichiometry N for various binders
Lab note: jot the number down without any unit.

Consider the following illustrative entries.
binder	stoichiometry N
GNILPSDIMLFVLKNTPSMQALGESPESY (MLL TAD, residues 2842-2869 of human MLL, with the substitution; Tyr residue attached at the C-terminus for concentration determination by UV absorption; One of the four mutants used without His-tag–GB1 in ITC as well as in CD; source: E. coli BL21(DE3), purified (Ni-NTA, thrombin digestion on the column, anion exchange); not shown: His6, N-terminal, cleaved) [MLL TAD peptide D2851L without His-tag–GB1]	1.02
GNILPSDIMDFVLKNWPSMQALGESPESY (MLL TAD, residues 2842-2869 of human MLL, with the substitution; Tyr residue attached at the C-terminus for concentration determination by UV absorption; Used in ITC; also called designed T2857W peptide; T2857W mutant of the MLL TAD peptide; source: E. coli BL21(DE3), purified (Ni-NTA); not shown: His6, N-terminal, kept) [His-tag–GB1–MLL TAD T2857W]	1.02
GNILPSDIMDFVLKNKPSMQALGESPESY (MLL TAD, residues 2842-2869 of human MLL, with the substitution; Tyr residue attached at the C-terminus for concentration determination by UV absorption; source: E. coli BL21(DE3), purified (Ni-NTA); not shown: His6, N-terminal, kept) [His-tag–GB1–MLL TAD T2857K]	1.02
GNILPSDIMDFVLKNIPSMQALGESPESY (MLL TAD, residues 2842-2869 of human MLL, with the substitution; Tyr residue attached at the C-terminus for concentration determination by UV absorption; One of the four mutants used without His-tag–GB1 in ITC as well as in CD; source: E. coli BL21(DE3), purified (Ni-NTA, thrombin digestion on the column, anion exchange); not shown: His6, N-terminal, cleaved) [MLL TAD peptide T2857I without His-tag–GB1]	1.04
GNILPSDIMDFVLKNFPSMQALGESPESY (MLL TAD, residues 2842-2869 of human MLL, with the substitution; Tyr residue attached at the C-terminus for concentration determination by UV absorption; source: E. coli BL21(DE3), purified (Ni-NTA); not shown: His6, N-terminal, kept) [His-tag–GB1–MLL TAD T2857F]	1.07
GNILPSDIMDFVLKNAPSMQALGESPESY (MLL TAD, residues 2842-2869 of human MLL, with the substitution; Tyr residue attached at the C-terminus for concentration determination by UV absorption; source: E. coli BL21(DE3), purified (Ni-NTA); not shown: His6, N-terminal, kept) [His-tag–GB1–MLL TAD T2857A]	1.03

Proceed to the following item.
Q. Entry GNILPSDLMDFVLKNTPSMQALGESPESY (MLL TAD, residues 2842-2869 of human MLL, with the substitution; Tyr residue attached at the C-terminus for concentration determination by UV absorption; One of the four mutants used without His-tag–GB1 in ITC as well as in CD; source: E. coli BL21(DE3), purified (Ni-NTA, thrombin digestion on the column, anion exchange); not shown: His6, N-terminal, cleaved) [MLL TAD peptide I2849L without His-tag–GB1] needs its stoichiometry N filled in; supply it.
A. 0.947
